Where these numbers come from: patent US20250171542A1

Overview of recorded pKd for various binders
Target: T1, cynomolgus PD-L1-His (Sino Biological, Cat. 90251-C08H) (cynomolgus, UniProt Q9NZQ7 19-238 (human entry))
T1 construct: Bought protein; also called Cyno PD-L1; Cynomolgus PD-L1 ECD-His; not shown: His tag
T1 sequence (Q9NZQ7 other isoform, or with tags, fused parts or gaps C08H C08H limits assumed): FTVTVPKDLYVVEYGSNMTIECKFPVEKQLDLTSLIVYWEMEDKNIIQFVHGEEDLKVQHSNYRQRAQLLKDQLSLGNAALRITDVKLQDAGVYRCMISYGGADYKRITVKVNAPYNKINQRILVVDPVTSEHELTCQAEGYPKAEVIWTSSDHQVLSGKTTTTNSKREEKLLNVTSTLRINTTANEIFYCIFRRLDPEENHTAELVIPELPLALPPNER
Experiment: BLI (Gator), cynomolgus PD-L1
Lab note: report pKd as minus log10 of the concentration in molar units, number only.

{"columns": ["binder", "experimental-value"],
 "data": [
  ["33E8 (antibody, human IgG1, V domains shown) VH: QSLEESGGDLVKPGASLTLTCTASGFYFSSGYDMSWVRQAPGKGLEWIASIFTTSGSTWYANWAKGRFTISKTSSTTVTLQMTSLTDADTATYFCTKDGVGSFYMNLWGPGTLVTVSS VL: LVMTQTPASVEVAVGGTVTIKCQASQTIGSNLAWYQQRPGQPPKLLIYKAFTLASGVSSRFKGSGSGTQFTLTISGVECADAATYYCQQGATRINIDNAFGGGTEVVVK", 9.03],
  ["28B3 (antibody, human IgG1, V domains shown) VH: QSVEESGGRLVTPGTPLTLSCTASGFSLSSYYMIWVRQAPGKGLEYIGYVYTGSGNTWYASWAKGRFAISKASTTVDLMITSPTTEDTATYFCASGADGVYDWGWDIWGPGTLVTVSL VL: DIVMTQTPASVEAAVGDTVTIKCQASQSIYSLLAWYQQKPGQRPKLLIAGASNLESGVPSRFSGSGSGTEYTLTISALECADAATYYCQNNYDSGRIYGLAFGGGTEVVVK", 9.48]
]}

The record that follows has no pKd shown yet.
(Q) What does the record list as pKd for 33H7 (antibody, human IgG1, V domains shown) VH: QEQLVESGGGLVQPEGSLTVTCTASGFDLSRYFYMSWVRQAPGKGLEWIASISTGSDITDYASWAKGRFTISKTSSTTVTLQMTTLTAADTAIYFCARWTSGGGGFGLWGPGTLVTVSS VL: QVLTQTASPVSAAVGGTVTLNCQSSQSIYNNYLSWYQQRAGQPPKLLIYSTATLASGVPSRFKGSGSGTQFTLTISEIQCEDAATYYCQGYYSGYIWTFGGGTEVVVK ?
(A) 9.64
